We begin with a simple list: items and their reported log10 IC50.
- system-name: mGlyT-1b (Mus musculus)
- Construct: host or cells: Flp-in-CHO
- assay-summary: Glycine uptake inhibition assay (mGlyT-1b), [3H]-glycine uptake in transfected Flp-in-CHO cells
- Format: cell-based
- recorded-conditions: Flp-in-CHO cells transfected with mGlyT-1b cDNA; [3H]-glycine 60 nM and 25 μM non-radioactive glycine; 20 min preincubation at 22° C.; read-out: IC50 (μM) at GlyT-1; Ic50 (hglyt1b)
Where a name gives a salt, the structure may show the parent alone.
Please interpret these as log10 of IC50 where IC50 is in µM.

{"compound": "N[C@@H](c1ccc(Cl)cc1)[C@H](O)c1ccc(-c2ccccc2Cl)cc1 (racemic) [Example 73]", "readout-kind": "log10 IC50", "reported": -0.34}

Query: Look at this compound and give its reported log10 IC50. CC(=O)N1CCC(Oc2ccc([C@@H](O)[C@@H](N)c3ccc(Cl)c(Cl)c3)cc2)CC1 (racemic) [Example 46]
Response: -0.58

Query: Fill in the blank: the reported log10 IC50 of C[Si](C)(C)c1ccc([C@@H](O)[C@@H](N)c2ccc(Cl)c(Cl)c2)cc1 (racemic) [Example 35] is ____.
Response: -0.53

Query: Query (compound): N[C@@H](c1ccc(Cl)c(Cl)c1)[C@H](O)c1ccc(OC2CCOC2)cc1 (mixture of isomers) [Example 42] ; field requested: log10 IC50
Response: -1.28

Query: Record request: log10 IC50 value, item N[C@@H](c1ccc(C(F)(F)F)c(F)c1)[C@H](O)c1ccc(-c2cccnc2)cc1 (racemic) [Example 95]
Response: -0.80

Query: Please look up its log10 IC50: N[C@@H](c1ccc(Cl)cc1F)[C@H](O)c1ccc(-c2cccnc2)cc1 (racemic) [Example 97]
Response: -0.57

Query: Which log10 IC50 value is on record for Nc1ccc(-c2ccc([C@@H](O)[C@@H](N)c3ccc(Cl)cc3)cc2)cn1 (racemic) [Example 69] ?
Response: -0.66

Query: I have this compound here, CCO[C@H](c1ccc(-c2cncc(F)c2)cc1)[C@@H](N)c1ccc(Cl)c(Cl)c1 (racemic) [Example 99] , and I need its recorded log10 IC50.
Response: -0.55

Query: Data request, read-out log10 IC50, for N[C@@H](c1ccc(Cl)c(F)c1)[C@H](O)c1ccc(-c2cncc(F)c2)cc1 (racemic) [Example 85]
Response: -1.02

Query: Which log10 IC50 value is on record for N[C@@H](c1ccc(Cl)cc1)[C@H](O)c1ccc(-c2ccsc2)cc1 (racemic) [Example 70] ?
Response: -0.53

Query: Report log10 IC50 for N[C@@H](c1ccc(Cl)cc1)[C@H](O)c1ccc(-c2cccnc2)cc1 (racemic) [Example 63, hydrochloride] please.
Response: -1.05

Query: Value lookup for log10 IC50; key = Cc1cc(OC2CCOC2)ncc1[C@@H](O)[C@@H](N)c1ccc(Cl)c(Cl)c1 (mixture of isomers) [Example 24, dihydrochloride]
Response: -0.69

Query: Param item = COCc1cccc(-c2ccc([C@@H](O)[C@@H](N)c3ccc(Cl)cc3)cc2)c1 (racemic) [Example 60, hydrochloride] ; retrieve measured log10 IC50.
Response: -0.58

Query: What measured log10 IC50 goes with CS(=O)(=O)c1cccc(-c2cccc([C@@H](O)[C@@H](N)c3ccc(Cl)c(Cl)c3)c2)c1 (racemic) [Example 5] ?
Response: -0.21

* * *

- system-name: mGlyT-1b (Mus musculus, UniProt P28571)
- Construct: host or cells: Flp-in-CHO
- Sequence (P28571 1-651 isoform P28571-2): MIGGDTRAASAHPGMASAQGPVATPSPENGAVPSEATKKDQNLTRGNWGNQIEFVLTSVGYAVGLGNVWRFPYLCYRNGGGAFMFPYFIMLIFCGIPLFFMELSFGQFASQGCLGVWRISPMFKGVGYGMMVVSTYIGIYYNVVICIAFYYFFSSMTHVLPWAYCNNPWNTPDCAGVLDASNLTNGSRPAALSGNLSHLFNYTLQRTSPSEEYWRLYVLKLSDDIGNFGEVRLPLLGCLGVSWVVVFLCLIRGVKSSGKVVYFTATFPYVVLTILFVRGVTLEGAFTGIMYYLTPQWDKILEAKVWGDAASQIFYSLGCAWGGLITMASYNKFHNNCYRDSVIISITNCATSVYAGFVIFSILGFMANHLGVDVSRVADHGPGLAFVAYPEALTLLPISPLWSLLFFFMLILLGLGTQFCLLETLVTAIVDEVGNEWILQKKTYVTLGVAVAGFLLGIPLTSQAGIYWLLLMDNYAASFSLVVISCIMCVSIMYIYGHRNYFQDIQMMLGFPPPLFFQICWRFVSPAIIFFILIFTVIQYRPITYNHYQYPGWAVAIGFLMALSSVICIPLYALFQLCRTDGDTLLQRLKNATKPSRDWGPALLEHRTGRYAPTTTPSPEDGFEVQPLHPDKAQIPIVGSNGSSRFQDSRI
- assay-summary: Glycine uptake inhibition assay (mGlyT-1b), [3H]-glycine uptake in transfected Flp-in-CHO cells
- Format: cell-based
- recorded-conditions: Flp-in-CHO cells transfected with mGlyT-1b cDNA; [3H]-glycine 60 nM and 25 μM non-radioactive glycine; 20 min preincubation at 22° C.; read-out: IC50 (μM) at GlyT-1; Ic50 (hglyt1b)
Counter-ions that a name gives are not always drawn.
readout-kind: IC50 (µM)
Please reply with the bare figure in µM and do not write the unit itself.

Worked examples follow.
{"compound": "CN(C)c1cccc(-c2ccc([C@@H](O)[C@@H](N)c3ccc(Cl)c(Cl)c3)cc2)c1 (racemic) [Example 89]", "units-of-measure": "µM", "IC50": 0.305}
{"compound": "CS(=O)(=O)c1cncc(-c2ccc([C@@H](O)[C@@H](N)c3ccc(Cl)c(Cl)c3)cc2)c1 (racemic) [Example 82]", "units-of-measure": "µM", "IC50": 0.047}
{"compound": "CC1(COc2ccc([C@@H](O)[C@@H](N)c3ccc(Cl)c(Cl)c3)c(F)c2)COC1 (racemic) [Example 34]", "units-of-measure": "µM", "IC50": 0.023}
{"compound": "CC(C)Oc1ccc([C@@H](O)[C@@H](N)c2ccc(Cl)c(Cl)c2)nc1 (racemic) [Example 32, dihydrochloride]", "units-of-measure": "µM", "IC50": 0.842}

Query: Tell me the measured IC50 of Cc1ccc([C@H](N)[C@H](O)c2ccc(-c3cncc(F)c3)cc2)cc1F (racemic) [Example 94] , please.
Response: 0.104
